- system: Alpha-1A adrenergic receptor (Homo sapiens); note: assay procedure not described here
- Sequence (P35348 whole entry): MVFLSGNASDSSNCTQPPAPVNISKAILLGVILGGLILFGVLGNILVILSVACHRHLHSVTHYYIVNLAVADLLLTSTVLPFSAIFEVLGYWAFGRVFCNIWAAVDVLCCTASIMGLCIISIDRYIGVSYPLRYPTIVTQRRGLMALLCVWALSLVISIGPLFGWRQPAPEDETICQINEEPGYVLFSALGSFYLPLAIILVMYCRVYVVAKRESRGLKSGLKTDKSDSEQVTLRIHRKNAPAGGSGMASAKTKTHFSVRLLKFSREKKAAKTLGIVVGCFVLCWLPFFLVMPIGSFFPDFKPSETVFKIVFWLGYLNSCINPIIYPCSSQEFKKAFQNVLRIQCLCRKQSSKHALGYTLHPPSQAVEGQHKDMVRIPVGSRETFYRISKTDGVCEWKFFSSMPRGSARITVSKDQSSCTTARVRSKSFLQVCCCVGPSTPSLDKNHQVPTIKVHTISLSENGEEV
- Format: functional, cell-based
testReadout: AC50

OC(c1ccccc1)(c1ccccc1)C12CC[N+](CCOCc3ccccc3)(CC1)CC2 = > 30 µM
CC(=O)N[C@@H]1[C@@H](O)[C@H](O)[C@@H](CO)O[C@H]1O [N-ACETYLGLUCOSAMINE] = > 30 µM
Cc1cn([C@H]2C[C@H](N=[N+]=[N-])[C@@H](CO)O2)c(=O)[nH]c1=O [ZIDOVUDINE] = > 30 µM
C=CCc1ccccc1OCC(O)CNC(C)C (configuration not stated) [ALPRENOLOL] = > 0.3 µM

Endpoint output: AC50 of CO[C@H]1C[C@@H]2CC[C@@H](C)[C@@](O)(O2)C(=O)C(=O)N2CCCC[C@H]2C(=O)O[C@H]([C@H](C)C[C@@H]2CC[C@@H](O)[C@H](OC)C2)CC(=O)[C@H](C)/C=C(\C)[C@@H](O)[C@@H](OC)C(=O)[C@H](C)C[C@H](C)/C=C/C=C/C=C/1C [SIROLIMUS] . Value?
> 30 µM

And for C[S+](CC[C@H](N)C(=O)[O-])C[C@H]1O[C@@H](n2cnc3c(N)ncnc32)[C@H](O)[C@@H]1O (some centres not stated) [ADEMETIONINE] ?
> 30 µM

Next up: COc1cc([C@@H]2c3cc4c(cc3[C@H](O)[C@H]3COC(=O)[C@H]23)OCO4)cc(OC)c1OC [PODOFILOX]
6.56 µM

---

// reported AC50 for each item listed
- system: Muscarinic acetylcholine receptor M1 (Homo sapiens); note: assay procedure not described here
- Sequence (P11229 whole entry): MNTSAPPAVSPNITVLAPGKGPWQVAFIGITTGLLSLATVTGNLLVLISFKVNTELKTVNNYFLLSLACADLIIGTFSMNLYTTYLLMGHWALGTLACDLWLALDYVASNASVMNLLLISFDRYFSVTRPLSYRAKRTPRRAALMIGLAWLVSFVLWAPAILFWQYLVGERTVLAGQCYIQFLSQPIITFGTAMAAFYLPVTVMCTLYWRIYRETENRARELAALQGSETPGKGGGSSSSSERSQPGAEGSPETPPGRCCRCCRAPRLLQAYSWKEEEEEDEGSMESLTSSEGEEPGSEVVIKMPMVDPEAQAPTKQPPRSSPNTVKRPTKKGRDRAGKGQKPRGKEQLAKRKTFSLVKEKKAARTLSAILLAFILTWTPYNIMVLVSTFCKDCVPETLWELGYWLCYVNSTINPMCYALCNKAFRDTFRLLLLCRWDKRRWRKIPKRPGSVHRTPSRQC
- Type: functional

Solved entries (count: 5):
COc1ccc(CCN(C)CCCC(C#N)(c2cc(OC)c(OC)c(OC)c2)C(C)C)cc1OC (stereo not drawn) [GALLOPAMIL] = > 30 µM
C[C@]1(O)CC[C@H]2[C@@H]3CCC4=CC(=O)CC[C@]4(C)[C@@]3(F)[C@@H](O)C[C@@]21C [FLUOXYMESTERONE] = > 30 µM
CCCCc1ncc(/C=C(\Cc2cccs2)C(=O)O)n1Cc1ccc(C(=O)O)cc1 [EPROSARTAN] = > 10 µM
CCCCCCOc1ccccc1C(N)=O [EXALAMIDE] = > 30 µM
O=C(O)C[C@H](O)C[C@H](O)/C=C/c1c(C2CC2)nc2ccccc2c1-c1ccc(F)cc1 [PITAVASTATIN] = > 30 µM

Sample CC1(C)O[C@@H]2C[C@H]3[C@@H]4CCC5=CC(=O)C=C[C@]5(C)[C@H]4[C@@H](O)C[C@]3(C)[C@]2(C(=O)CO)O1 [DESONIDE] — what was its AC50?
> 10 µM

Here is the next compound: CN1CCN(CC/C=C2/c3ccccc3Sc3ccc(S(=O)(=O)N(C)C)cc32)CC1 [THIOTHIXENE]
> 10 µM

Proceed to CN1CCN(C2=Nc3ccccc3Sc3ccc(Cl)cc32)CC1 [CLOTHIAPINE]
1.2 µM

---

Documented AC50 across a set of compounds
- system: Alpha-2A adrenergic receptor (Homo sapiens, UniProt P08913); note: assay procedure not described here
- Sequence (P08913 whole entry): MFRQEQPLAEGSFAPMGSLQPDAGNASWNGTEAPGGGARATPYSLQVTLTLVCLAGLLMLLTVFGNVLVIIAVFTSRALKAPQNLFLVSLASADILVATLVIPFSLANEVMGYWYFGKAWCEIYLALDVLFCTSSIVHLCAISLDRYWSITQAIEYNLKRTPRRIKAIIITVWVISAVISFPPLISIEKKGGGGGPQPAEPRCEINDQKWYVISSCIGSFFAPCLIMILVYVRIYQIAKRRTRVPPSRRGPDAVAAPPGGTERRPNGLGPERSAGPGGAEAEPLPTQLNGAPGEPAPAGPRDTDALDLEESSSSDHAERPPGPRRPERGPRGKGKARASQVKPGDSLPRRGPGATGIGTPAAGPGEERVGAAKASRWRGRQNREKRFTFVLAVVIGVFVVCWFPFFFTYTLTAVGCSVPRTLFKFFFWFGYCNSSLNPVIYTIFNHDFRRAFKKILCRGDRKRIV

Example entries begin here.
Cc1c(C(=O)NN2CCCCC2)nn(-c2ccc(Cl)cc2Cl)c1-c1ccc(Cl)cc1 [RIMONABANT] = > 10 µM
CNS(=O)(=O)Cc1ccc2[nH]cc(CCN(C)C)c2c1 = > 10 µM

Name the recorded AC50 for CCc1c(Cl)c(O)c(Cl)c(O)c1C(=O)O[C@H]1[C@H](O)[C@H](OC)[C@H](OC/C2=C\C=C\C[C@H](O)/C(C)=C/[C@H](CC)[C@@H](O[C@@H]3OC(C)(C)[C@@H](OC(=O)C(C)C)[C@H](O)[C@@H]3O)/C(C)=C/C(C)=C/C[C@@H]([C@@H](C)O)OC2=O)O[C@@H]1C [FIDAXOMICIN] .
> 10 µM
